Tested on: SNB-75 CNS
test-method-notes: NCI-60 one-dose screen, 48 h
test-context: 10 µM unless noted
Compounds without any hit were thinned out: in the full panel of roughly 83,000, 20% have a hit. Activity calls are given as the source filed them. How the source made its calls: active means growth percent below 10; inactive means the rest.
Outcomes: 1.0 (active), 0.0 (inactive)

>  <compound>
CCn1c(-c2nonc2Nc2ccc(OC)cc2)nc2ccccc21

>  <system-tested>
SNB-75 CNS

>  <class-assignment>
0.0

$$$$
>  <compound>
CCOC(=O)c1cnc2c(C)cccc2c1Nc1ccc(C(C)=O)cc1

>  <system-tested>
SNB-75 CNS

>  <class-assignment>
0.0

$$$$
>  <compound>
COc1ccc(-c2nsc3c2NC(=O)CC3c2cccc(OC)c2)cc1 (stereo unspecified)

>  <system-tested>
SNB-75 CNS

>  <class-assignment>
1.0

$$$$
>  <compound>
CC(C)(C)c1ccc(C2CC(=O)C3=C(C2)Nc2ccccc2N(C(=O)c2ccccc2Cl)C3c2ccc(F)cc2)cc1 (stereo unspecified)

>  <system-tested>
SNB-75 CNS

>  <class-assignment>
0.0

$$$$
>  <compound>
COc1ccc(/C=C2\SC(=Nc3ccccc3)NC2=O)cc1

>  <system-tested>
SNB-75 CNS

>  <class-assignment>
1.0

$$$$
>  <compound>
Brc1ccc(Nc2nc3ccccc3nc2Nc2ccc(Br)cc2)cc1

>  <system-tested>
SNB-75 CNS

>  <class-assignment>
1.0

$$$$
>  <compound>
COc1ccccc1CNC(=O)C1c2ccccc2C(=O)N(CC(C)C)C1c1cccs1 (stereo unspecified)

>  <system-tested>
SNB-75 CNS

>  <class-assignment>
0.0

$$$$
>  <compound>
O=c1oc2ccc(Cl)cc2c(=O)n1-c1ccc(F)cc1F

>  <system-tested>
SNB-75 CNS

>  <class-assignment>
1.0

$$$$
>  <compound>
O=C(CCc1nnc2sc(-c3ccc(Cl)cc3Cl)nn12)c1nc2ncccc2[nH]1

>  <system-tested>
SNB-75 CNS

>  <class-assignment>
0.0

$$$$
>  <compound>
O=c1oc2ccc(Br)cc2c(=O)n1-c1ccc(F)cc1F

>  <system-tested>
SNB-75 CNS

>  <class-assignment>
1.0

$$$$
>  <compound>
O=c1oc2ccc(Cl)cc2c(=O)n1-c1cc(C(F)(F)F)cc(C(F)(F)F)c1

>  <system-tested>
SNB-75 CNS

>  <class-assignment>
1.0

$$$$
>  <compound>
COc1cc(/C(C#N)=C/c2nc3c(N4CCOCC4)nc(Cl)nc3n2C)cc(OC)c1OC

>  <system-tested>
SNB-75 CNS

>  <class-assignment>
1.0

$$$$
>  <compound>
CC(=O)c1ccc(Nc2nc(NCCO)nc(Nc3ccc(Cl)cc3)n2)cc1

>  <system-tested>
SNB-75 CNS

>  <class-assignment>
0.0

$$$$
>  <compound>
COc1cc(/C=C2\CN(C)C/C(=C\c3cc(CN4CCCCC4)c(O)c(OC)c3)C2=O)cc(CN2CCCCC2)c1O

>  <system-tested>
SNB-75 CNS

>  <class-assignment>
0.0

$$$$
>  <compound>
COC(=O)/C(=C\c1c(C)[nH]c2ccccc12)S(=O)(=O)c1ccccc1

>  <system-tested>
SNB-75 CNS

>  <class-assignment>
1.0

$$$$
>  <compound>
Nc1ccc(-c2ccc(-c3ccccc3N)c3[nH]c4ccccc4c23)cc1

>  <system-tested>
SNB-75 CNS

>  <class-assignment>
0.0

$$$$
>  <compound>
CS(=O)(=O)Nc1ccc(C(=O)NC(C(=O)NO)c2ccc(-c3cccc(F)c3)cc2)cc1 (stereo unspecified)

>  <system-tested>
SNB-75 CNS

>  <class-assignment>
0.0

$$$$
>  <compound>
O=C1Nc2ccccc2/C1=C/c1ccc[nH]1

>  <system-tested>
SNB-75 CNS

>  <class-assignment>
0.0

$$$$
>  <compound>
CC(=O)n1cc(-c2c[nH]c3ccccc23)c(-c2ccc(Cl)cc2)n1

>  <system-tested>
SNB-75 CNS

>  <class-assignment>
0.0

$$$$
>  <compound>
COc1ccc(C2NCCc3c2[nH]c2ccccc32)cc1CN1CCN(c2ccc(F)cc2)CC1 (stereo unspecified)

>  <system-tested>
SNB-75 CNS

>  <class-assignment>
0.0

$$$$
>  <compound>
Cn1nc(C(F)(F)F)c(-c2ccc(Cl)c(C(F)(F)F)c2)c1-c1ccc(OCc2ccc(Cl)cc2)cc1O

>  <system-tested>
SNB-75 CNS

>  <class-assignment>
0.0

$$$$
>  <compound>
NCCNc1nc2ccccc2c2c(=O)c3cc(F)cc(Cl)c3sc12

>  <system-tested>
SNB-75 CNS

>  <class-assignment>
0.0

$$$$
>  <compound>
CCN(CC)CCCNc1ccnc2cc3ccccc3cc12

>  <system-tested>
SNB-75 CNS

>  <class-assignment>
0.0

$$$$
>  <compound>
CCCCCCc1cc2cc(-c3csc(/C=C/c4ccccc4)n3)c(=O)oc2cc1O

>  <system-tested>
SNB-75 CNS

>  <class-assignment>
1.0

$$$$
>  <compound>
O=C1c2ccc3c4c(ccc(c24)C(=O)N1CCCCO)C(=O)N(CCCCO)C3=O

>  <system-tested>
SNB-75 CNS

>  <class-assignment>
0.0

$$$$
>  <compound>
Oc1ccc(-c2nc(-c3ccc4oc5ccc(-c6[nH]c(-c7ccc(O)cc7)nc6-c6ccccc6)cc5c4c3)c(-c3ccccc3)[nH]2)cc1

>  <system-tested>
SNB-75 CNS

>  <class-assignment>
0.0

$$$$
>  <compound>
CCOc1c(Br)cc(C2C(C(=O)OC)=CN(C)C=C2C(=O)OC)cc1OC

>  <system-tested>
SNB-75 CNS

>  <class-assignment>
0.0

$$$$
>  <compound>
CCOc1ccc(-c2nonc2NC(=O)c2cccc(C)c2)cc1OCC

>  <system-tested>
SNB-75 CNS

>  <class-assignment>
0.0

$$$$
>  <compound>
Cc1ccc2c(n1)C(=O)C(Oc1ccc(Br)cc1)=CC2=O

>  <system-tested>
SNB-75 CNS

>  <class-assignment>
0.0

$$$$
>  <compound>
CC(=O)Nc1nc2c(s1)CCc1c-2cn(S(=O)(=O)c2ccccc2)c1-c1ccccc1

>  <system-tested>
SNB-75 CNS

>  <class-assignment>
0.0

$$$$
>  <compound>
O=c1oc2ccc(F)cc2c(=O)n1-c1ccc(I)cc1F

>  <system-tested>
SNB-75 CNS

>  <class-assignment>
1.0

$$$$
>  <compound>
CCCCOCc1cc(CN2CCN(C)CC2)c(O)c2ncccc12

>  <system-tested>
SNB-75 CNS

>  <class-assignment>
0.0

$$$$
>  <compound>
O=C(Nc1ccc(N2CCNCC2)cc1)c1[nH]ncc1Nc1ncnc2sc3c(c12)CCC3

>  <system-tested>
SNB-75 CNS

>  <class-assignment>
1.0

$$$$
>  <compound>
COc1ccc(-c2cn[nH]c2-c2ccc(OC)c(O)c2)cc1

>  <system-tested>
SNB-75 CNS

>  <class-assignment>
0.0

$$$$
>  <compound>
O=C(CN1C(=O)/C(=C\c2ccc(Cl)cc2)SC1=S)Nc1ncc(Cc2ccc(Cl)cc2)s1

>  <system-tested>
SNB-75 CNS

>  <class-assignment>
0.0

$$$$
>  <compound>
CCOc1cc2c(cc1OCC)C(c1cc(C)c(O)c(C)c1)NCC2 (stereo unspecified)

>  <system-tested>
SNB-75 CNS

>  <class-assignment>
0.0

$$$$
>  <compound>
Cc1ccc(Nc2nc(N)c3ccccc3n2)cc1Cl

>  <system-tested>
SNB-75 CNS

>  <class-assignment>
0.0

$$$$
>  <compound>
COc1cc2nc(-c3cnc(N(C)C)nc3)nc(NC3CCN(Cc4ccccc4)CC3)c2cc1OC

>  <system-tested>
SNB-75 CNS

>  <class-assignment>
1.0

$$$$
>  <compound>
Cc1cccc2c(=O)c3c(sc12)c(N1CCNCC1)nc1ccccc13

>  <system-tested>
SNB-75 CNS

>  <class-assignment>
0.0

$$$$
>  <compound>
C#CCn1cc(C=C2C(=O)N(C)C(=O)N(C)C2=O)c2cc(Cl)ccc21

>  <system-tested>
SNB-75 CNS

>  <class-assignment>
0.0

$$$$
>  <compound>
COc1ccc(C2=NN(/C=C3\SC(=O)NC3=Nc3ccc(F)cc3)C(c3ccc(F)cc3)C2)cc1 (stereo unspecified)

>  <system-tested>
SNB-75 CNS

>  <class-assignment>
0.0

$$$$

Data credit: PubChem BioAssay (NCI)
